targetSystem: aggregated synthetic Aβ40 (Homo sapiens, UniProt P05067)
Construct: Synthetic Aβ40 is aggregated at a concentration of 50 μM
Sequence (P05067 672-711 limits assumed): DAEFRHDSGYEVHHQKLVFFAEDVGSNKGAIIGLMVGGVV
protocol: Thiazin-red R displacement fluorescence assay on aggregated A-beta
testConditions: displacement of Thiazin-red R from aggregated Aβ40; compound 0.3 nM to 10000 nM; 30 min room temperature; Ex 531 nm/Em 595 nm
quantity: pIC50
Numbers only, as −log10 of the molar value.

Reference set, count: 3
| entrySmiles | targetSystem | pIC50 |
| --- | --- | --- |
| COc1cc(/C=c2\sc3nc(-c4cccnc4)cn3c2=O)cc(Cl)c1O | aggregated synthetic Aβ40 (Homo sapiens, UniProt P05067) | 6.15 |
| CCN(CC)c1ccc(-c2cn3c(=O)/c(=C/c4cc(Cl)c(O)c(OC)c4)sc3n2)cc1 | aggregated synthetic Aβ40 (Homo sapiens, UniProt P05067) | 6.74 |
| COc1cc(/C=c2\sc3nc(-c4cc(C)nc(C)c4)cn3c2=O)cc(Cl)c1O | aggregated synthetic Aβ40 (Homo sapiens, UniProt P05067) | 6.38 |

Could I get pIC50 for every one of these entries?
1. CCCOc1cc(/C=c2\sc3nc(-c4ccccn4)cn3c2=O)cc(Cl)c1O
2. COc1cc(/C=c2\sc3nc(-c4ccc(N5CCOCC5)cc4)cn3c2=O)cc(Cl)c1O
3. COc1cc(/C=c2\sc3nc(-c4cccnc4)cn3c2=O)cc(F)c1O
4. CCCOc1cc(/C=c2\sc3nc(-c4cncnc4)cn3c2=O)cc(Cl)c1O
5. COc1ccc(-c2nc3s/c(=C\c4cc(Cl)c(O)c(OC)c4)c(=O)n3c2C)cc1

6.53
6.32
6.62
5.71
6.33

----------
Consider the following molecules; for each one, report its IC50.
targetSystem: aggregated synthetic Aβ40 (Homo sapiens, UniProt P05067)
Construct: Synthetic Aβ40 is aggregated at a concentration of 50 μM
protocol: Thiazin-red R displacement fluorescence assay on aggregated A-beta
testConditions: displacement of Thiazin-red R from aggregated Aβ40; compound 0.3 nM to 10000 nM; 30 min room temperature; Ex 531 nm/Em 595 nm
Give bare numbers, in nM.

Reference set, count: 4
| molecule | IC50 / nM |
| --- | --- |
| COc1cc(/C=c2\sc3nc(-c4ccc(Cl)cc4)cn3c2=O)cc(OC)c1O [Example 2] | 7 |
| COc1cc(/C=c2\sc3nc(-c4cccc(F)c4)cn3c2=O)cc(F)c1O [Example 58] | 752 |
| COc1cc(/C=c2\sc3nc(-c4ccnc(C)c4)cn3c2=O)cc(Br)c1O [Example 77] | 76 |
| COc1cc(/C=c2\sc3nc(-c4ccc(Cl)cc4)cn3c2=O)cc(OC(C)C)c1O [Example 30] | 16 |

Note down IC50 recorded for COc1cc(/C=c2\sc3nc(-c4cccc(C(N)=O)c4)cn3c2=O)cc(Cl)c1O [Example 86]
1240

----------
targetSystem: aggregated recombinant human-microtubule associated protein Tau (Homo sapiens)
Construct: Recombinant human-microtubule associated protein Tau purified from E. coli is aggregated at a concentration of 5 μM with Arachidonic Acid (100 μM) in Tris 10 mM pH8, 24 h at 37° C
protocol: Thiazin-red R displacement fluorescence assay on aggregated Tau
testConditions: displacement of Thiazin-red R from aggregated Tau; compound 0.3 nM to 10000 nM; 30 min room temperature; Ex 531 nm/Em 595 nm
Lab note: compare IC50 with 9 nM, writing condition met if less and condition not met if equal or more.

Some entries whose results are on file:
| molecule | groupLabel |
| --- | --- |
| COc1cc(/C=c2\sc3nc(-c4ccc(N5CCOCC5)cc4)cn3c2=O)cc(Cl)c1O [Example 92] | condition not met |
| COc1cc(/C=c2\sc3nc(-c4ccc(C(=O)N5CC(F)C5)cc4)cn3c2=O)cc(Cl)c1O [Example 134] | condition met |
| CCCOc1cc(/C=c2\sc3nc(-c4ccc(Cl)cc4)cn3c2=O)cc(OC)c1O [Example 31] | condition met |
| COc1cc(/C=c2\sc3nc(-c4ccncc4)cn3c2=O)cc(OC)c1O [Example 1] | condition met |

I'd appreciate it if you could check whether CCCOc1cc(/C=c2\sc3nc(-c4ccsc4)cn3c2=O)cc(Cl)c1O [Example 131] has IC50 smaller than 9 nM.
condition not met

I'd appreciate it if you could check whether COc1cc(/C=c2\sc3nc(-c4cccc(C(=O)N(C)CCc5cccc(F)c5)c4)cn3c2=O)cc(Cl)c1O [Example 118] has IC50 smaller than 9 nM.
condition not met

I'd appreciate it if you could check whether COc1cc(/C=c2\sc3nc(-c4cc(Br)cc(C#N)c4)cn3c2=O)cc(Cl)c1O [Example 85] has IC50 smaller than 9 nM.
condition met

----------
Consider the following compounds; for each one, report its pIC50.
targetSystem: aggregated synthetic Aβ40 (Homo sapiens, UniProt P05067)
Construct: Synthetic Aβ40 is aggregated at a concentration of 50 μM
protocol: Thiazin-red R displacement fluorescence assay on aggregated A-beta
testConditions: displacement of Thiazin-red R from aggregated Aβ40; compound 0.3 nM to 10000 nM; 30 min room temperature; Ex 531 nm/Em 595 nm
Numbers only, as −log10 of the molar value.

Reference set, count: 3
| compound | reportedMeasurement |
| --- | --- |
| COc1cc(/C=c2\sc3nc(-c4cccc(OCCOCCOCCF)c4)cn3c2=O)cc(Cl)c1O | 5.67 |
| COc1cc(/C=c2\sc3nc(-c4cccc(S(=O)(=O)F)c4)cn3c2=O)cc(Cl)c1O | 7.72 |
| O=c1/c(=C/c2cc(F)c(O)c(OCCCF)c2)sc2nc(-c3ccncc3)cn12 | 5.91 |

Could I get pIC50 for every one of these entries?
1. CCCOc1cc(/C=c2\sc3nc(-c4ccc(-n5cnc(C)c5)nc4)cn3c2=O)cc(Cl)c1O
2. COc1cc(/C=c2\sc3nc(-c4ccc(C(=O)NCCCF)cc4)cn3c2=O)cc(Cl)c1O [Example 117]
3. COc1cccc(-c2cn3c(=O)/c(=C/c4cc(Cl)c(O)c(OC)c4)sc3n2)c1
4. Cc1cc(-c2cn3c(=O)/c(=C/c4cc(Cl)c(O)c(OCCCF)c4)sc3n2)cc(C)n1

[6.31, 6.19, 6.40, 6.22]

Could I get pIC50 for every one of these entries?
1. COc1cc(/C=c2\sc3nc(-c4ccccc4F)cn3c2=O)cc(Cl)c1O
2. CCCOc1cc(/C=c2\sc3nc(-c4cccc(OC(F)(F)F)c4)cn3c2=O)cc(OC)c1O
3. CCOc1cc(/C=c2\sc3nc(-c4ccc(Cl)cc4)cn3c2=O)ccc1O
4. COc1ccc(-c2nc3s/c(=C\c4cc(F)c(O)c(OC)c4)c(=O)n3c2C)cc1
5. COc1cc(/C=c2\sc3nc(-c4cccc(F)c4)cn3c2=O)cc(OC)c1O
6. COc1cc(/C=c2\sc3nc(-c4ccc(C(=O)N(C)CCOCCF)cc4)cn3c2=O)cc(Cl)c1O
7. CCCNC(=O)c1ccc(-c2cn3c(=O)/c(=C/c4cc(Cl)c(O)c(OC)c4)sc3n2)cc1

5.25
6.59
5.94
6.36
7.30
6.48
6.45

Note down pIC50 recorded for COc1cc(/C=c2\sc3nc(-c4c(F)cccc4F)cn3c2=O)cc(Cl)c1O
5.26

----------
targetSystem: aggregated recombinant human-microtubule associated protein Tau (Homo sapiens, UniProt P10636)
Construct: Recombinant human-microtubule associated protein Tau purified from E. coli is aggregated at a concentration of 5 μM with Arachidonic Acid (100 μM) in Tris 10 mM pH8, 24 h at 37° C
Sequence (P10636 whole entry): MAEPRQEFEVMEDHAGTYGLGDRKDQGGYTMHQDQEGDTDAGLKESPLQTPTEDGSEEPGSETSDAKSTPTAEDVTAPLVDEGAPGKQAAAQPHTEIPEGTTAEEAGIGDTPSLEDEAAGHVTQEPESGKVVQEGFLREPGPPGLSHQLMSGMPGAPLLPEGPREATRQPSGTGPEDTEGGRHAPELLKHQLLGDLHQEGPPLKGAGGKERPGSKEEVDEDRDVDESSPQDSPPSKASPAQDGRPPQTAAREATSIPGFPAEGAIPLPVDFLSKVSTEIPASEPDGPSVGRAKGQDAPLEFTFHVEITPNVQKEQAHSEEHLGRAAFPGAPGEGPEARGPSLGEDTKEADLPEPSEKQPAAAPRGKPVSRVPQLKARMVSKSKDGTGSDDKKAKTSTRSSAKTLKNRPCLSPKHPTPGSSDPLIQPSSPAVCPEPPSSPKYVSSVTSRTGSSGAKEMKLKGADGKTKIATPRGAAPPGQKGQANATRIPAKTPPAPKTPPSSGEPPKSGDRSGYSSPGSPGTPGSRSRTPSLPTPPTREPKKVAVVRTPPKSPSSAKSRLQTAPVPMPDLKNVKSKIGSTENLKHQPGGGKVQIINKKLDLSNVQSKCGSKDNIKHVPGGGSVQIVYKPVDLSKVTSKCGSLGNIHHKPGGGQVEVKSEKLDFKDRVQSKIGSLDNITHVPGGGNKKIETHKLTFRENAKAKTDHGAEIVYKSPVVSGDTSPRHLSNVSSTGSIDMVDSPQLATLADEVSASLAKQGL
protocol: Thiazin-red R displacement fluorescence assay on aggregated Tau
testConditions: displacement of Thiazin-red R from aggregated Tau; compound 0.3 nM to 10000 nM; 30 min room temperature; Ex 531 nm/Em 595 nm
Experimental: Assay for Determination of […] for Tau and A-Beta Recombinant human-microtubule associated protein Tau purified from E. coli is aggregated at a concentration of 5 μM with Arachidonic Acid (100 μM) in Tris 10 mM pH8, 24 h at 37° C. Synthetic Aβ40 is aggregated at a concentration of 50 μM with Arachidonic Acid (100 μM) in Tris 10 mM pH8, for three days at 37° C., under shaking at 150 rpm. […]
quantity: pIC50
Give bare numbers, as −log10 of the molar value.

Reference set, count: 5
| entrySmiles | pIC50 |
| --- | --- |
| COc1cc(/C=c2\sc3nc(-c4cc(C)nc(C)c4)cn3c2=O)cc(F)c1O | 7.49 |
| COc1ccc(-c2nc3s/c(=C\c4cc(Cl)c(O)c(OC)c4)c(=O)n3c2C)cc1 | 7.43 |
| CCCOc1cc(/C=c2\sc3nc(-c4cnccc4C)cn3c2=O)cc(Cl)c1O | 7.48 |
| COc1cc(/C=c2\sc3nc(-c4ccc(C(=O)N(C)CCF)cc4)cn3c2=O)cc(F)c1O | 7.32 |
| COc1cc(/C=c2\sc3nc(-c4ccc(C#N)cc4)cn3c2=O)cc(Cl)c1O | 9.52 |

Could I get pIC50 for every one of these entries?
1. CCOc1cc(/C=c2\sc3nc(-c4ccc(Cl)cc4)cn3c2=O)cc(OC)c1O
2. COc1cc(/C=c2\sc3nc(-c4cccc(C(N)=O)c4)cn3c2=O)cc(Cl)c1O
3. COc1cc(/C=c2\sc3nc(-c4ccc(C(=O)O)cc4)cn3c2=O)cc(Cl)c1O

8.70
9.00
7.68
